# Target desc: FPTase (H-Ras substrate) (Homo sapiens, UniProt P49354+P49356)
# Method summary: in vitro FTase Inhibition Assay, H-Ras as substrate for farnesylation
# Measurement parameters: H-Ras used as substrate for farnesylation
# IC50 per entry
Return type: number; implicit unit µM.

• Cc1ccc(S(=O)(=O)C2(CC#Cc3ccc(Cl)cc3)CC(=O)NC2=O)cc1 (centres unmarked) = 6.5

With those in mind, consider the next compound.
Which measured IC50 value corresponds to COc1ccc(S(=O)(=O)C2(CCCC#Cc3ccc(Cl)cc3)CC(=O)NC2=O)cc1 (centres unmarked) ?
0.14

###

# Target desc: FPTase (K-Ras substrate) (Homo sapiens, UniProt P49354+P49356)
# Method summary: in vitro FTase Inhibition Assay, K-Ras as substrate for farnesylation
# Measurement parameters: K-Ras used as substrate for farnesylation
pIC50: −log10 of the molar value.
Quantity name: pIC50

Which measured pIC50 value corresponds to COc1ccc(S(=O)(=O)C2(CCCC#Cc3ccc(Cl)cc3)CC(=O)NC2=O)cc1 (stereo not shown) ?
< 6.00

Hey, just so you know, these numbers are from patent US6861445B2.
